As a worked illustration, we turn to IC50 data collected for Plasminogen (Homo sapiens).
attributeMeasured: IC50 (µM)

CCOC(=O)CN1C(=O)/C(=C(\C)c2cccc(OC(=O)N[C@@H](CC(C)C)C(=O)N(CCN(Cc3ccc(C(=O)OC)cc3)Cc3ccc(C(=O)OC)cc3)Cc3ccc(Cl)cc3)c2)SC1=S ... 20

[A] C/C(=C1/SC(=S)N(CC(=O)O)C1=O)c1ccc(-c2ccccc2)cc1
[B] O=C(O)CN1C(=O)/C(=C/c2cc([N+](=O)[O-])ccc2F)SC1=S
Query: Of A and B , which one carries the higher reported IC50? // caller expects the label of the chosen entry
Reply: B
(B: 13 µM, A: 7 µM)
